Quick record: EC50, UniProt P0C6X1.
Sequence (P0C6X1 2966-3267 limits assumed): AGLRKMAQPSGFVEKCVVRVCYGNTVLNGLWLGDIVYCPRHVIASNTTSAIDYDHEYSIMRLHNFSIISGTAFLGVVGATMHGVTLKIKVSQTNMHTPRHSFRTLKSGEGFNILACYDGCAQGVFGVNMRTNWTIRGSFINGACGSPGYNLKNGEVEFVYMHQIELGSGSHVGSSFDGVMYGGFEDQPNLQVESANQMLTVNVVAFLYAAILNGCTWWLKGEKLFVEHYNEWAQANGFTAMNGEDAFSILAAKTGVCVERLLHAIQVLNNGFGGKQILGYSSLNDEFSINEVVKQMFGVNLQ
Write it as a number; the unit nM goes unstated.

Solved cases (3 shown):
INSERT INTO assay_data (molecular_string, test_readout, units_text, observed_measurement) VALUES
  ('COc1cccc2[nH]c(=O)cc(C(=O)N[C@@H]3CCN(c4c(C(=O)N5CCOCC5)cc(C)cc4C4CC4)C3)c12', 'EC50', 'nM', 2.13),
  ('Cc1cc(C(=O)N2CCOCC2)c(N2C[C@H](NC(=O)c3cc(=O)[nH]c4c(F)c(F)ccc34)CC2=O)c(C2CC2)c1', 'EC50', 'nM', 6.11),
  ('O=C(N[C@@H]1CCN(c2c(OC(F)(F)F)cc(Br)cc2C(=O)N2CCOCC2)C1)c1cc(=O)[nH]c2c(F)cccc12', 'EC50', 'nM', 3.58);

Inquiry: Given the entry `C[C@@H]1C[C@@H](NC(=O)c2cc(=O)[nH]c3c(F)c(F)ccc23)CN1c1c(C(=O)N2CCOCC2)cc(C#N)cc1C(F)(F)F` , what EC50 was observed with UniProt P0C6X1?
Reply text: 2.81

Inquiry: # returns recorded EC50 (system: UniProt P0C6X1) for `COCCN(C)C(=O)c1cc(Br)cc(C(F)(F)F)c1N1CC[C@@H](NC(=O)c2cc(=O)[nH]c3c(F)cccc23)C1`
Reply text: 39

Inquiry: EC50 of `Cc1[nH]c(=O)c(F)c(C(=O)N[C@@H]2CCN(c3c(C(=O)N4CCOCC4)cc(C#N)cc3C(F)(F)F)C2)c1Cl` on UniProt P0C6X1?
Reply text: 5.31
